# protocol_text: in vivo
# Type: in vivo, rat
# settings: male, Sprague Dawley, rat, in vivo; calculated using 1 mg/kg data; read-out: Free Brain:Free Plasma (0.167 h)
# reported Kp at 0.167 h; entries follow
Lab note: jot the number down without any unit.

{"compound": "CC(CNC(=N)CNc1ccccc1)Oc1cccc(Cl)c1.O=CO (centres unmarked) [BW501C67, formate]", "Kp at 0.167 h": 0.0032}

Please look at the following compound next.
Entry CC(C)COc1ccc(CNC(=O)N(Cc2ccc(F)cc2)C2CCN(C(=O)CC[C@H](N)C(=O)O)CC2)cc1 [Compound 14a] has what Kp at 0.167 h?
0

* * *

# target_or_test_system: 5-HT2B receptor (Homo sapiens, UniProt P41595)
# Construct: host or cells: HEK293 (stably transfected)
# Sequence (P41595 whole entry): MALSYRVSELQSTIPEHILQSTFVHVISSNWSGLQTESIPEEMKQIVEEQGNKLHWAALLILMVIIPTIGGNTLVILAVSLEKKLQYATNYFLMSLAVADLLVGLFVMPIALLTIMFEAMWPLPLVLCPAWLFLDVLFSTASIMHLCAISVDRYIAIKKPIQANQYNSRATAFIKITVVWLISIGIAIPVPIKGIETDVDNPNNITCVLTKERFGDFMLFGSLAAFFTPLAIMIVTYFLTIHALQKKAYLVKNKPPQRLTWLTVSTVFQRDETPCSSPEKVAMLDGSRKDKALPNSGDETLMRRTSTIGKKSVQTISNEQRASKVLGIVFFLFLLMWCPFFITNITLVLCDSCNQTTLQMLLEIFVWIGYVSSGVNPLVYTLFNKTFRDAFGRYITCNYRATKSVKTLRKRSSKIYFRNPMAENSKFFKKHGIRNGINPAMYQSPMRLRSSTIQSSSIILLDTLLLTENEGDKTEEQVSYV
# protocol_text: FLIPR Ca2+ flux functional assay, antagonist activity at 5-HT2B
# Format: cell-based
measurement_name: IC50
Form entry: enter the amount, then its unit.

Entry CC(CNC(=N)CNc1ccccc1)Oc1cccc(Cl)c1.O=CO (stereo not shown) [BW501C67, formate] has what IC50?
21.6 nM

* * *

# reported log10 Ki; entries follow
# target_or_test_system: 5-HT2C receptor (Homo sapiens)
# Construct: WuXi AppTec (Hong Kong) Limited (contract laboratory that ran the assay)
# Sequence (P28335 33-458): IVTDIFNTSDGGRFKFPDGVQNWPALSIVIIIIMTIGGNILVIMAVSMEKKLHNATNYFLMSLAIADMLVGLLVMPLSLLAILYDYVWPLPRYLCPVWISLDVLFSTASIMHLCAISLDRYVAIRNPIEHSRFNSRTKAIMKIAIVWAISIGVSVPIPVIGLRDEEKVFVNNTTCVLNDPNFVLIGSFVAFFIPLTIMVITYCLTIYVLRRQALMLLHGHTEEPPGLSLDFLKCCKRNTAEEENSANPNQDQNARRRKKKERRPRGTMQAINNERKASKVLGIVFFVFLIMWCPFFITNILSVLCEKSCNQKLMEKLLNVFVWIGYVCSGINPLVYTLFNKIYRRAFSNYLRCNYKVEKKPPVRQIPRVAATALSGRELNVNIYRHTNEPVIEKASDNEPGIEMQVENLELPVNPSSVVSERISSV
# protocol_text: biochemical
# Format: binding
# settings: HEK293 stable cell line, 2 nM [3H]mesulergine, 1 h, 25° C.; read-out: 5-HT2C Ki (nM) ([3H]mesulergine)
Answers are given as log10 of Ki in nM.

Entry CC(CNC(=N)CNc1ccccc1)Oc1cccc(Cl)c1.O=CO (stereo not drawn) [BW501C67, formate] has what log10 Ki?
0.13

Entry COc1cccc(OC(C)CNC(=N)Cc2cccc(C)c2)c1.O=C(O)C(F)(F)F (stereo not drawn) has what log10 Ki?
0.16

Entry CCCc1cc(OC)c(CC(C)N)cc1OC (stereo not drawn) has what log10 Ki?
1.22

Entry CCN(C)CCc1c[nH]c2ccc(F)cc12 has what log10 Ki?
1.77

Entry CC(C)COc1ccc(CNC(=O)N(Cc2ccc(F)cc2)C2CCN(C(=O)CC[C@H](N)C(=O)O)CC2)cc1 [Compound 14a] has what log10 Ki?
2.03

* * *

# reported IC50; entries follow
# target_or_test_system: 5-HT2A receptor (Homo sapiens, UniProt P28223)
# Construct: WuXi AppTec (Hong Kong) Limited (contract laboratory that ran the assay)
# Sequence (P28223 whole entry): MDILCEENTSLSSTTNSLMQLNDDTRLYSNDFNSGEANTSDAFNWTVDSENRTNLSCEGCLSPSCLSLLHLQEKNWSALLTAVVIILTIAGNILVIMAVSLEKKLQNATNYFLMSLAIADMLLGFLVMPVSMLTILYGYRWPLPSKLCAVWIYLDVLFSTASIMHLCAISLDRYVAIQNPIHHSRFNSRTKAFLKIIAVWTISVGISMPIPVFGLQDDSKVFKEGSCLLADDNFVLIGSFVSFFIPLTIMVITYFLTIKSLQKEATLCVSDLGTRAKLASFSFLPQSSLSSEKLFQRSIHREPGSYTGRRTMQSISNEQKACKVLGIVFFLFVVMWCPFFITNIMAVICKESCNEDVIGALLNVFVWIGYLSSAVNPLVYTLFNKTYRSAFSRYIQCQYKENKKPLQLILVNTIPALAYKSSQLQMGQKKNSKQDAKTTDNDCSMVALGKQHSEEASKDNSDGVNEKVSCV
# protocol_text: FLIPR Ca2+ flux functional assay, antagonist activity at 5-HT2A
# Format: cell-based
# settings: antagonist activity, Ca2+ flux, HEK293 cells, agonist at EC80; read-out: 5-HT2A IC50
Quick note: give the figure in nM, leave out the unit.

{"molecule": "COc1cccc(OC(C)CNC(=N)Cc2cccc(C)c2)c1.O=C(O)C(F)(F)F (centres unmarked) [xylamidine]", "target_or_test_system": "5-HT2A receptor (Homo sapiens, UniProt P28223)", "observed_value": 24}

Please state recorded IC50 (tested on 5-HT2A receptor (Homo sapiens, UniProt P28223)) of CC(C)COc1ccc(CNC(=O)N(Cc2ccc(F)cc2)C2CCN(C(=O)CC[C@H](N)C(=O)O)CC2)cc1 [Compound 14a]
297

* * *

# protocol_text: Rat plasma stability
# Format: in vitro ADME
# settings: Method 2: 5 μM, 37° C.
measurement_name: % Remaining (120 minutes), rat plasma
Form entry: enter the amount, then its unit.

// solved cases for % Remaining (120 minutes), rat plasma follow
{"molecule": "COc1cccc(OC(C)CNC(=N)Cc2cccc(C)c2)c1.O=C(O)C(F)(F)F (stereo not drawn)", "% Remaining (120 minutes), rat plasma": "94%"}
{"molecule": "COc1cccc(CCc2ccccc2OCC(CN(C)C)OC(=O)CCC(=O)O)c1 (stereo not drawn) [sarpogrelate]", "% Remaining (120 minutes), rat plasma": "67%"}
{"molecule": "CC(C)COc1ccc(CNC(=O)N(Cc2ccc(F)cc2)C2CCNCC2)cc1.Cl", "% Remaining (120 minutes), rat plasma": "96%"}

Entry CC(C)COc1ccc(CNC(=O)N(Cc2ccc(F)cc2)C2CCN(C(=O)CC[C@H](N)C(=O)O)CC2)cc1 [Compound 14a] has what % Remaining (120 minutes), rat plasma?
97%

Entry COc1cccc(CCc2ccccc2OCC(O)CN(C)C)c1 (stereo not drawn) [sarpogrelate M1] has what % Remaining (120 minutes), rat plasma?
94%

Entry COc1cccc(C(=O)Nc2ccc(OCCN3CCOCC3)c(-c3ccnn3C)c2)c1 has what % Remaining (120 minutes), rat plasma?
95%

Origin of measurements: patent US20240390301A1
